- Target Or Test System: MAO-B (Homo sapiens, UniProt P27338)
- Construct: purchased Sigma M7441
- Sequence (P27338 1-520): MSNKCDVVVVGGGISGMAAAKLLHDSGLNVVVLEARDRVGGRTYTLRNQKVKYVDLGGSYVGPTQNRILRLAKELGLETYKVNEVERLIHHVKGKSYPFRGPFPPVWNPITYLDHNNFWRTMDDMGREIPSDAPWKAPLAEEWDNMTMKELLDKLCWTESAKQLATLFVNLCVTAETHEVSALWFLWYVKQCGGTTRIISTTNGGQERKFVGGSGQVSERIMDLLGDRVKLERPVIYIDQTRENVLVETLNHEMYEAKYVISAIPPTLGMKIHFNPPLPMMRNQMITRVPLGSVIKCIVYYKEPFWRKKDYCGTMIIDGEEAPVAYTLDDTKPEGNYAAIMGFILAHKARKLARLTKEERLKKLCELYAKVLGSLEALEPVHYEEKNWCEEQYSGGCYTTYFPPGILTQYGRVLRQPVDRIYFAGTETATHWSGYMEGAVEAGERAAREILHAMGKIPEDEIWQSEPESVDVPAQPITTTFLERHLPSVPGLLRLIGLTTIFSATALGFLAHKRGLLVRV
- Procedure Details: MAO-B inhibitory assay
- Assay type: biochemical
- Condition Description: means of three replicates; N.A. means no activity; read-out: MAO-B-IC50 (µM ± SD)
Structures can show the parent of a compound that is named as a salt.
Recorded Metric: IC50 (µM)
Reply with just the number (in µM).

Entry OC(CCN1CCCCC1)(c1ccccc1)C1CC2C=CC1C2 (stereo not shown) [Biperiden HCl, reference compound] has what IC50? 238

----------
Please go through the items and note down their IC50.
- Target Or Test System: MAO-A (Homo sapiens, UniProt P21397)
- Sequence (P21397 1-527): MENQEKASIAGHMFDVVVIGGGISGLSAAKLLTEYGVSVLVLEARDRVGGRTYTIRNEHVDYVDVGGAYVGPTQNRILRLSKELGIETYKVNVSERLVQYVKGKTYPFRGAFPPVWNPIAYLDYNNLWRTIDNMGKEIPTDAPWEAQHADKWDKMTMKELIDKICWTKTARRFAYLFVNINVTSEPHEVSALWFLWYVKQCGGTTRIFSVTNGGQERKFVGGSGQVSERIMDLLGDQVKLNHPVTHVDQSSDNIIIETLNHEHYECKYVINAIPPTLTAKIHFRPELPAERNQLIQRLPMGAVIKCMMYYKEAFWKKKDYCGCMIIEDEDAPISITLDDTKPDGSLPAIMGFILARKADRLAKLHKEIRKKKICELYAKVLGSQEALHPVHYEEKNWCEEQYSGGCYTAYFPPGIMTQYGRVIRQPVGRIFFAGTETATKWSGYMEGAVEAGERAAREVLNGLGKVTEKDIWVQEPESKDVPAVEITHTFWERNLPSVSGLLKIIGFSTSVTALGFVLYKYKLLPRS
Kindly report the value followed by its unit.

Query IC50 on MAO-A (Homo sapiens, UniProt P21397) for NNC(=O)COc1ccccc1-c1nc(-c2ccccc2)no1 47.2 µM

Query IC50 on MAO-A (Homo sapiens, UniProt P21397) for O=C(COc1ccccc1-c1nc(-c2ccc(C(F)(F)F)cc2)no1)NN1C(=O)c2ccccc2C1=O 144 µM

Query IC50 on MAO-A (Homo sapiens, UniProt P21397) for O=C(COc1ccccc1-c1nc(Cc2ccccc2)no1)N/N=C\c1ccccc1[N+](=O)[O-] 204 µM

Query IC50 on MAO-A (Homo sapiens, UniProt P21397) for O=C(COc1ccccc1-c1nc(-c2ccccc2)no1)N/N=C\c1cnn(-c2ccccc2)n1 85.2 µM
